- System: Hepatotoxicity
- assay: FDA HLAED, serum glutamic pyruvic transaminase (SGPT) increase
- reported conditions: human
Assign SGPT Increase - Index Value to each entry below.
Give bare numbers.

>  <compound>
CCn1cc(C(=O)O)c(=O)c2cc(F)c(N3CCNCC3)nc21

>  <SGPT Increase - Index Value>
0

$$$$
>  <compound>
C#C[C@]1(O)CC[C@H]2[C@@H]3CCC4=CC(=O)CC[C@@H]4[C@H]3CC[C@@]21CC

>  <SGPT Increase - Index Value>
22.7

$$$$

I need SGPT Increase - Index Value for every entry listed below, if you could help.
1. CC[C@H](C)C(=O)O[C@H]1C[C@H](O)C=C2C=C[C@H](C)[C@H](CC[C@@H](O)C[C@@H](O)CC(=O)O)[C@H]21
2. CC(C)(O/N=C(\C(=O)N[C@@H]1C(=O)N2C(C(=O)[O-])=C(C[n+]3ccccc3)CS[C@H]12)c1csc(N)n1)C(=O)O
3. C/C(=C\C(=O)OCCCCCCCCC(=O)O)C[C@@H]1OC[C@H](C[C@@H]2O[C@H]2[C@@H](C)[C@H](C)O)[C@@H](O)[C@H]1O
4. CNCC(O)c1ccc(OC(=O)C(C)(C)C)c(OC(=O)C(C)(C)C)c1 (stereo unspecified)
5. Nc1cc(N2CCCCC2)nc(N)[n+]1[O-]
6. Oc1ccc2c3c1O[C@H]1[C@@H](O)CC[C@@]4(O)[C@@H](C2)N(CC2CCC2)CC[C@]314

## Output
6.3
0
0
0
1.1
0

For each entry beneath this line, provide reported SGPT Increase - Index Value.
1. CN(C)CC/C=C1/c2ccccc2COc2ccc(CC(=O)O)cc21
2. C[C@]12CC[C@@H]3c4ccc(O)cc4CC[C@H]3[C@@H]1CC[C@@H]2O
3. Nc1nc(Cl)nc2c1ncn2[C@H]1C[C@H](O)[C@@H](CO)O1
4. Cc1ccc(C(=O)Oc2ccc(C(O)CNC(C)(C)C)cc2OC(=O)c2ccc(C)cc2)cc1 (stereo unspecified)

## Output
[0, 2.1, 16.2, 0]

Dear colleague, could you send me SGPT Increase - Index Value for each of the items below? Thanks.
1. C=CC[N+]1([C@H]2C[C@H]3[C@@H]4CC[C@H]5C[C@H](O)[C@@H](N6CCOCC6)C[C@]5(C)[C@H]4CC[C@]3(C)[C@H]2OC(C)=O)CCCC1.[Br-] [ROCURONIUM BROMIDE]
2. O=P1(N(CCCl)CCCl)NCCCO1 (stereo unspecified) [CYCLOPHOSPHAMIDE ANHYDROUS]
3. CCOC(=O)C1=C(C)NC(C)=C(C(=O)OC)C1c1cccc(Cl)c1Cl (stereo unspecified)

## Output
0
8.5
0.3
